Biological target: Sentrin-specific protease 8 (Homo sapiens, UniProt Q96LD8);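 note: luminescence read-out of SENP8 inhibition, dose-response confirmation following an ultra-high-throughput screen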
Sequence (Q96LD8 whole entry): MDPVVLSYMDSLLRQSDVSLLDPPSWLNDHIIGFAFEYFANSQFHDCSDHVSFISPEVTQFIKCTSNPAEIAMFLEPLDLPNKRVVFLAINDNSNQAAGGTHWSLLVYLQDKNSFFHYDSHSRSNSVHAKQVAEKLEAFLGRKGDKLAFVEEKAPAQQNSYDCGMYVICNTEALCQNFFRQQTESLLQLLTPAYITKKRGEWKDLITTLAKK
Assay type: functional
Active and inactive are the calls of the source.
Classes used: active, inactive

query-smiles: COc1cc(NC(=O)c2cccc(Br)c2)nc(OC)n1
class-label: active

query-smiles: O=C(CSc1ncnc2ccccc12)c1cccs1
class-label: active

query-smiles: CCOC(=O)/C=C/c1ccc2oc3ccccc3c(=O)c2c1
class-label: active

query-smiles: C/C(=N\c1cccc(C)c1)c1sc2ccccc2c1O
class-label: active

query-smiles: Cc1ccc(-c2nc3sc4c(c3c(=O)n2N)CCCC4)cc1
class-label: inactive

query-smiles: Cc1ccc(/C=N/N=C/c2ccc(C)s2)s1
class-label: active

query-smiles: COc1ccc(/C=N/Nc2cc(N(C)C)nc(N(C)C)n2)cc1
class-label: active

----------
IC50 values for the molecules below.
Biological target: Carboxy-terminal domain RNA polymerase II polypeptide A small phosphatase 1 (Homo sapiens, UniProt Q9GZU7)
Sequence (Q9GZU7 whole entry, the tested form may be a part): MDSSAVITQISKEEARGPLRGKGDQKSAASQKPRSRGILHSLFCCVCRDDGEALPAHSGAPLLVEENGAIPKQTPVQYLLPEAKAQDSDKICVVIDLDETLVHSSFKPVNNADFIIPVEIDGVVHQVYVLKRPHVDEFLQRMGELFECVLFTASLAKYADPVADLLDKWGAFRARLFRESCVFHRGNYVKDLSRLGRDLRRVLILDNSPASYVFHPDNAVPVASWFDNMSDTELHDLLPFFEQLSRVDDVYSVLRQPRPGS
Experiment: inhibitors of CTDSP1, concentration-response testing, biochemical assay, absorbance-based, actives from ultra-high-throughput screening (AID 540297)
Format: functional
Activity calls are given as the source filed them.
measured-parameter: IC50

molecule: Cc1ccc2c(c1Cl)NC(C(=O)O)C1CC(Sc3ccccc3[N+](=O)[O-])C(Cl)C21 (stereo not drawn)
result: 2.97 µM (active)
//
molecule: Cc1cc(/C=C2\C(=O)NC(=O)N(Cc3ccccc3)C2=O)c(C)n1-c1ccc(Cl)c(C(=O)O)c1
result: 1.02 µM (active)
//
molecule: O=C(Nc1nc2ccsc2c(=O)s1)c1ccc(F)cc1Cl
result: 31.7 µM (active)

----------
Target: Heat shock protein HSP 90-alpha (Homo sapiens)
Type: functional, organism-based
Activity calls are given as the source filed them.
measured-parameter: AC50

compound: O=C(Nc1ccccc1)Oc1cccc2cccnc12
measured-parameter: AC50
result: 3.44 µM (active)

compound: CC1=CC2C(C(O)CC3(C)C2CC(C)C32OCOC23COCO3)C2(C)CC(C=O)=C(O)C=C12 (stereo not drawn)
measured-parameter: AC50
result: 4.34 µM (active)

compound: O=C(/C=C/c1ccccc1Cl)c1ccc(O)cc1
measured-parameter: AC50
result: 4.46 µM (active)

----------
Molecular target: Corticotropin-releasing factor receptor 2/Corticotropin-releasing factor-binding protein (Homo sapiens, UniProt P24387+Q13324)
Sequence (Q13324 whole entry): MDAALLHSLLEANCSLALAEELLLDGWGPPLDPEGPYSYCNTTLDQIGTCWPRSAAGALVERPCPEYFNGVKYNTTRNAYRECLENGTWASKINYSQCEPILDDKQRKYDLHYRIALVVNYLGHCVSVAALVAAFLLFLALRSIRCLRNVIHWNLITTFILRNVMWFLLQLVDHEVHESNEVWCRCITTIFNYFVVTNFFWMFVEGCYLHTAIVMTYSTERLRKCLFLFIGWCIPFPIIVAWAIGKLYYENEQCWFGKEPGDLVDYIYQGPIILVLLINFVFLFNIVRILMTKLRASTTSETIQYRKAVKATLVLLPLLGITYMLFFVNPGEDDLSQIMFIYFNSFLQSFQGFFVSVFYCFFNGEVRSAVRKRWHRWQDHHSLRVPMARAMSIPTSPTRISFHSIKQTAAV
Sequence (P24387 whole entry): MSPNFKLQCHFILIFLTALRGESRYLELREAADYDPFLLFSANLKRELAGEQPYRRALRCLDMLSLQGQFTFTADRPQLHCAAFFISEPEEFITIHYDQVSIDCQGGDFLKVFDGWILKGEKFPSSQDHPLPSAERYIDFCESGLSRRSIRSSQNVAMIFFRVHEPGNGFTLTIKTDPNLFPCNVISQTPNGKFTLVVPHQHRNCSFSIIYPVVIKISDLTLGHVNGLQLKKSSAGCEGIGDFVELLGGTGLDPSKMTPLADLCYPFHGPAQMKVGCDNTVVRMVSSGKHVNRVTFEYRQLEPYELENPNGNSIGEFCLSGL
Assay: activators of CRF receptor 2 with binding protein – uHTS hits, confirmation (AID 602473)
Format: functional
Details: read-out: EC50_Mean
Active and inactive are the calls of the source.
Classes used: YES (active), NO (inactive)

compound: CC(C)c1cc(-c2cc(C(=O)NCc3ccccc3)on2)nc(NCC2CC2)n1
class-label: YES
//
compound: COc1ccc([N+](=O)[O-])cc1NC(=O)c1ccccc1SC
class-label: NO
//
compound: COc1ccc(F)cc1S(=O)(=O)NCC(=O)NCc1cc(=O)n(C)c(=O)n1C
class-label: NO
//
compound: CC(OC(=O)c1ccc(S(=O)(=O)NCc2ccco2)cc1)C(=O)Nc1ccc(Cl)cn1 (stereo not given)
class-label: YES
//
compound: Cc1cc(C)nc(SCc2nnc(SCc3ccc([N+](=O)[O-])cc3)n2Cc2ccco2)n1
class-label: NO
//
compound: COc1c(Cl)cc(-c2noc(C)c2C(=O)NCc2ccc3c(c2)OCO3)cc1Cl
class-label: NO
//
compound: CCOC(=O)c1c(-c2ccccc2)csc1NC(=O)/C(C#N)=C\c1ccc(O)c(OC)c1
class-label: YES
//
compound: CN(C)C1=NP(N(C)C)(N(C)C)=NC(c2ccccc2)=N1
class-label: NO
//
compound: Cc1ccc(O)c(C(=O)c2cc(C#N)c3nc4ccccc4n3c2)c1
class-label: YES
//
compound: O=C(COc1cccc2c1CCN(Cc1ccc(Br)cc1)C2=O)NCc1ccco1
class-label: NO
